pIC50: −log10 of the molar value.
Let's look at some pIC50 data for Glycogen synthase kinase-3 alpha (Homo sapiens, UniProt P49840) that I collected from the literature.

compound | pIC50
O=C1NCCCc2cc(ccn2)-c2ncnc(n2)Nc2cc(Cl)cc(c2)CN2CCC[C@@H]12 | 6.00 to 7.00
CC(C)(C)c1cc(NC(=O)Nc2ccc(Oc3ccnc(Nc4ccc5c(c4)CCC5)n3)c3ccccc23)n(-c2ccc(OCCN3CCOCC3)cc2)n1 | < 5.03
COc1cc(Nc2cc(Oc3ccc(NC(=O)Nc4cc(C(C)(C)C)cc(NS(C)(=O)=O)c4OC)c4ccccc34)ccn2)ccc1C(=O)NCCN1C[C@@H](C)O[C@@H](C)C1 | < 4.92
COc1c(NC(=O)Nc2ccc(Oc3ccnc(Nc4cc(OCCN5CCOCC5)cc(C(F)(F)F)c4)c3)c3ccccc23)cc(C(C)(C)C)cc1[S+](C)[O-] (stereo not drawn) | < 4.90
C#CC(C)(C)c1cc(NC(=O)Nc2ccc(Oc3ccnc(Nc4cc(OCCN(C)C)ccn4)n3)c3ccccc23)n(-c2ccc(C)cc2)n1 | < 5.00

Using the record for CN1Cc2cccc(c2)Nc2ncnc(n2)-c2ccnc(c2)NCCCNC(=O)CCN2CCC1CC2 , report its pIC50. 6.00 to 7.00

====

pIC50: −log10 of the molar value.
# merged literature set: pIC50 with Glycogen synthase kinase-3 alpha (Homo sapiens)

Recorded pIC50, per entry:
chemical string | pIC50
Cc1ccc(-n2nc(C(C)(C)C)cc2NC(=O)Nc2ccc(Oc3ccnc(Nc4ccc5c(c4)NC(=O)C5)n3)c3ccccc23)cc1 | < 4.81
C#Cc1cc(Nc2nccc(Oc3ccc(NC(=O)Nc4cc(C(C)(C)C)nn4-c4ccc(C)cc4)c4c3CCCC4)n2)cc(C(=O)NCCOCCOCCOC)c1 | 4.90

Let's switch to this compound now.
State the recorded pIC50 for this entry: O=C1CCN2CCN(CC2)Cc2cccc(c2)Nc2ncnc(n2)-c2ccnc(c2)CCCN1 7.00 to 8.00

====

Please find below pIC50 data on Glycogen synthase kinase-3 alpha (Homo sapiens, UniProt P49840) compiled from the literature.
pIC50: −log10 of the molar value.
readout: pIC50

chemical string | pIC50
C#Cc1cc(Nc2nccc(Oc3ccc(NC(=O)Nc4cc(C(C)C)nn4-c4cccc(CP(C)(C)=O)c4)c4ccccc34)n2)cc(OCCN2CCOCC2)c1 | 6.10
O=C(Nc1cccnc1)c1ccnn2c(NCC3CC3)cnc12 | 6.05
Cc1cc(Nc2nccc(Oc3ccc(NC(=O)Nc4cc(C(C)(C)C)nn4-c4cccc(CN5CCCC5=O)c4)c4ccccc34)n2)cc2cn[nH]c12 | 6.23
CC(C)c1cc(NC(=O)Nc2ccc(Oc3ccnc(Nc4ccccc4)c3)c3ccccc23)n(-c2cccc(CP(C)(C)=O)c2)n1 | 5.16

[P] C#Cc1cc(Nc2cc(Oc3ccc(NC(=O)Nc4cc(C(N)=O)cc(C(C)(C)C)c4)c4ccccc34)ccn2)cc(C(=O)NCCOCCOCCOC)c1
[Q] COc1cc(Nc2cc(Oc3ccc(NC(=O)Nc4cc(C(C)(C)C)cc(S(C)(=O)=O)c4OC)c4ccccc34)ccn2)cc(C(=O)NCCN2CC[S+]([O-])CC2)c1
Dear colleague, could you let me know whether P or Q has the lower recorded pIC50? Thanks. Give the label under which the chosen entry appears. P
(P: 4.97, Q: 5.44)
